pKi: recorded values
EXPERIMENTAL TARGET: Genome polyprotein (dengue virus type 2)
Sequence (P29990 1346-1475 limits assumed): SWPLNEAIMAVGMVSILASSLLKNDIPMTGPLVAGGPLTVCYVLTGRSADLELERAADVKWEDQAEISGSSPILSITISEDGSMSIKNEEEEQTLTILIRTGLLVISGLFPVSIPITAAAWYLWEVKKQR
Sequence (P29990 1476-2093 limits assumed): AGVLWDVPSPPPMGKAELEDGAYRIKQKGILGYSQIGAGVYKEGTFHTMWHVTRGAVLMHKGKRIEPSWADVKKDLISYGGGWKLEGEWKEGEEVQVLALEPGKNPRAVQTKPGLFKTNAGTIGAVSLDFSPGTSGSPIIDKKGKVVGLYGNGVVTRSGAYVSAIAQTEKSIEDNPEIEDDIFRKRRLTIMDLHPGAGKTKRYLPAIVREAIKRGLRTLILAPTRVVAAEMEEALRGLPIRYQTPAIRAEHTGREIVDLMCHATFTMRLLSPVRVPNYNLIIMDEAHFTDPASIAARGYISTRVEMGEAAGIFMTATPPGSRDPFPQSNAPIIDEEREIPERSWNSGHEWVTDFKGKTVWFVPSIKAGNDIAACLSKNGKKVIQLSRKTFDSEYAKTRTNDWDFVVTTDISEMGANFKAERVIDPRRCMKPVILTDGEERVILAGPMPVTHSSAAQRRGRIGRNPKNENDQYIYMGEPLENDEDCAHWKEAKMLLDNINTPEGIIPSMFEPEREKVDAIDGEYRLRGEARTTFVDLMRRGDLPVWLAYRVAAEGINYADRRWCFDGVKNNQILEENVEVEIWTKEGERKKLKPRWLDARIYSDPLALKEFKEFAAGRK
pKi: −log10 of the molar value.
MEASURED METRIC: pKi

1) CN([C@@H](Cc1ccc(C(=N)N)cc1)C(=O)N[C@@H](CCCCN)C(=O)N[C@@H](C(N)=O)c1ccc(OCc2ccc(Cl)c(Cl)c2)cc1)S(=O)(=O)c1ccccc1 :: 7.11
2) CN([C@@H](Cc1ccc(C(=N)N)cc1)C(=O)N[C@@H](CCCCN)C(=O)N[C@@H](C(N)=O)c1ccc(OCc2ccccc2)cc1)S(=O)(=O)c1ccccc1 :: 7.04

* * *

EXPERIMENTAL TARGET: Trypsin (Homo sapiens, UniProt P07477+P07478+P35030)
PROCEDURE DETAILS: Inhibition of trypsin (unknown origin) at 50 uM by biochemical assay relative to control
Format: protein assay
# reported inhibition; entries follow
MEASURED METRIC: inhibition (%)

1. CN([C@@H](Cc1ccc(C(=N)N)cc1)C(=O)N[C@@H](CCCCN)C(=O)N[C@@H](C(N)=O)c1ccc(OCc2ccc(C(F)(F)F)cc2)cc1)S(=O)(=O)c1ccccc1 :: 18.3
2. Cc1ccc(S(=O)(=O)N[C@@H](CCCNC(=N)N)C(=O)N[C@@H](CCCCN)C(=O)N[C@@H](C(N)=O)c2ccccc2)cc1 :: 21.6
3. N=C(N)NCCC[C@H](NS(=O)(=O)C1CCCCC1)C(=O)N[C@@H](CCCCN)C(=O)N[C@@H](C(N)=O)c1ccccc1 :: 17.4
4. CN([C@@H](Cc1ccc(C(=N)N)cc1)C(=O)N[C@@H](CCCCN)C(=O)N[C@@H](C(N)=O)c1ccc(OCc2ccc(Cl)c(Cl)c2)cc1)S(=O)(=O)c1ccccc1 :: 11
5. CN(C)c1cccc2c(S(=O)(=O)N[C@@H](CCCNC(=N)N)C(=O)N[C@@H](CCCCN)C(=O)N[C@@H](C(N)=O)c3ccccc3)cccc12 :: 10.7
6. Cc1ccc(S(=O)(=O)N(C)[C@@H](Cc2ccc(NC(=N)N)cc2)C(=O)N[C@@H](CCCCN)C(=O)N[C@@H](C(N)=O)c2ccccc2)cc1 :: 19.9
7. CN([C@@H](Cc1ccc(C(=N)N)cc1)C(=O)N[C@@H](CCCCN)C(=O)N[C@@H](C(N)=O)c1ccc(O)cc1)S(=O)(=O)c1ccccc1 :: 14.7
8. N=C(N)NCCC[C@H](NS(=O)(=O)c1ccc([N+](=O)[O-])cc1)C(=O)N[C@@H](CCCCN)C(=O)N[C@@H](C(N)=O)c1ccccc1 :: 30.6
9. CN([C@@H](Cc1ccc(C(=N)N)cc1)C(=O)N[C@@H](CCCCN)C(=O)N[C@@H](C(N)=O)c1ccc(OCc2ccccc2)cc1)S(=O)(=O)c1ccccc1 :: 22
10. CN([C@@H](Cc1ccc(C(=N)N)cc1)C(=O)N[C@@H](CCCCN)C(=O)N[C@H](C(N)=O)c1ccc(OCc2ccccc2)cc1)S(=O)(=O)c1ccccc1 :: 34.3
11. CN([C@@H](Cc1ccc(C(=N)N)cc1)C(=O)N[C@@H](CCCCN)C(=O)N[C@@H](C(N)=O)c1ccccc1)S(=O)(=O)c1ccccc1 :: 19.2
12. Cc1ccc(S(=O)(=O)N(C)[C@@H](CCCNC(=N)N)C(=O)N[C@@H](CCCCN)C(=O)N[C@@H](C(N)=O)c2ccccc2)cc1 :: 20.3
13. CN([C@@H](CCCNC(=N)N)C(=O)N[C@@H](CCCCN)C(=O)N[C@@H](C(N)=O)c1ccccc1)S(=O)(=O)c1ccc(Cl)cc1 :: 13
14. CN([C@@H](Cc1ccc(NC(=N)N)cc1)C(=O)N[C@@H](CCCCN)C(=O)N[C@@H](C(N)=O)c1ccccc1)S(=O)(=O)c1ccccc1 :: 17.1

* * *

EXPERIMENTAL TARGET: Genome polyprotein (West Nile virus, UniProt P06935)
Sequence (P06935 1371-1501 limits assumed): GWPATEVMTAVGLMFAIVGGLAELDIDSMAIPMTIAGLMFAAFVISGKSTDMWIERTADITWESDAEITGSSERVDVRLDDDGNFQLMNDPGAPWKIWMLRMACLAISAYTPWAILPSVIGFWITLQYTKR
Sequence (P06935 1502-2120 limits assumed): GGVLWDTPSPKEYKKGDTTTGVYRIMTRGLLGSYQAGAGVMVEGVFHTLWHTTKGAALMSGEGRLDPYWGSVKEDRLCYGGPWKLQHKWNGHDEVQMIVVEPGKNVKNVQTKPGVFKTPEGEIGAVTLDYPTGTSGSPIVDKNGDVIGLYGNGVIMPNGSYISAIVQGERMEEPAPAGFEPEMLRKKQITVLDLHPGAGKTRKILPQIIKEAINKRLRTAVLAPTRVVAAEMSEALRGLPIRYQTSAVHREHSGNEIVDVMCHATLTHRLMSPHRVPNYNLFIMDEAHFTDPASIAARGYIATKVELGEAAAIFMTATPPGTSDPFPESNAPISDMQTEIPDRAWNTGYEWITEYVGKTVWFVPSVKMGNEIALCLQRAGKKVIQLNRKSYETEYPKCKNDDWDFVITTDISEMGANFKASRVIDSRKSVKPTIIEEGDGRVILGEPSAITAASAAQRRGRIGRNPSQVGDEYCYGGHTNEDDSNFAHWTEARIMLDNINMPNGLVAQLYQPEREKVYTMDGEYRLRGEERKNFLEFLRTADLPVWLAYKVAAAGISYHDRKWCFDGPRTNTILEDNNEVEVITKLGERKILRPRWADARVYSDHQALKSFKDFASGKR
PROCEDURE DETAILS: Inhibition of West Nile virus NS2B-NS3 protease assessed as inhibition constant
MEASURED METRIC: Ki (µM)

1) CN([C@@H](Cc1ccc(C(=N)N)cc1)C(=O)N[C@@H](CCCCN)C(=O)N[C@@H](C(N)=O)c1ccc(OCc2ccc(Cl)c(Cl)c2)cc1)S(=O)(=O)c1ccccc1 :: 5.1

* * *

EXPERIMENTAL TARGET: Prothrombin (Homo sapiens)
PROCEDURE DETAILS: Inhibition of Thrombin (unknown origin) at 25 uM by biochemical assay relative to control
MEASURED METRIC: inhibition

1) N=C(N)Nc1ccc(C[C@H](NS(=O)(=O)c2ccccc2)C(=O)N[C@@H](CCCCN)C(=O)N[C@@H](C(N)=O)c2ccccc2)cc1 :: < 10%
2) Cc1cc(C)c(S(=O)(=O)N[C@@H](CCCNC(=N)N)C(=O)N[C@@H](CCCCN)C(=O)N[C@@H](C(N)=O)c2ccccc2)c(C)c1 :: < 10%
3) N=C(N)NCCC[C@H](NS(=O)(=O)c1ccc([N+](=O)[O-])cc1)C(=O)N[C@@H](CCCCN)C(=O)N[C@@H](C(N)=O)c1ccccc1 :: < 10%
4) CN(C)C(=O)COC(=O)Cc1ccc(OC(=O)c2ccc(NC(=N)N)cc2)cc1 :: 99%
5) CN([C@@H](Cc1ccc(NC(=N)N)cc1)C(=O)N[C@@H](CCCCN)C(=O)N[C@@H](C(N)=O)c1ccccc1)S(=O)(=O)c1ccccc1 :: < 10%
6) Cc1ccc(S(=O)(=O)N(C)[C@@H](CCCNC(=N)N)C(=O)N[C@@H](CCCCN)C(=O)N[C@@H](C(N)=O)c2ccccc2)cc1 :: < 10%
7) CN([C@@H](CCCNC(=N)N)C(=O)N[C@@H](CCCCN)C(=O)N[C@@H](C(N)=O)c1ccccc1)S(=O)(=O)c1ccccc1 :: < 10%
8) CN([C@@H](Cc1ccc(C(=N)N)cc1)C(=O)N[C@@H](CCCCN)C(=O)N[C@@H](C(N)=O)c1ccc(OCc2ccc(C(F)(F)F)cc2)cc1)S(=O)(=O)c1ccccc1 :: 15.8%
9) CC[C@H](NC(=O)[C@H](Cc1cccc(NC(=N)N)c1)N(C)S(=O)(=O)c1ccc(C)cc1)C(=O)N[C@@H](C(N)=O)c1ccccc1 :: 18.1%
10) CN([C@@H](Cc1cccc(N)c1)C(=O)N[C@@H](CCCCN)C(=O)N[C@@H](C(N)=O)c1ccccc1)S(=O)(=O)c1ccccc1 :: < 10%
11) N=C(N)NCCC[C@H](NS(=O)(=O)c1ccccc1)C(=O)N[C@@H](CCCCN)C(=O)N[C@@H](C(N)=O)c1ccccc1 :: < 10%
12) CN([C@@H](Cc1ccc(C(=N)N)cc1)C(=O)N[C@@H](CCCCN)C(=O)N[C@@H](C(N)=O)c1ccc(OCc2ccc(Cl)c(Cl)c2)cc1)S(=O)(=O)c1ccccc1 :: 15.8%
13) Cc1ccc(S(=O)(=O)N(C)[C@@H](Cc2ccc(NC(=N)N)cc2)C(=O)N[C@@H](CCCCN)C(=O)N[C@@H](C(N)=O)c2ccccc2)cc1 :: < 10%
14) Cc1ccc(S(=O)(=O)N[C@@H](CCCNC(=N)N)C(=O)N[C@@H](CCCCN)C(=O)N[C@@H](C(N)=O)c2ccccc2)cc1 :: < 10%
15) CN([C@@H](Cc1cccc(NC(=N)N)c1)C(=O)N[C@@H](CCCCN)C(=O)N[C@@H](C(N)=O)c1ccccc1)S(=O)(=O)c1ccccc1 :: 30.2%
